Biological target: human Alk-Smase (Homo sapiens, UniProt Q6UWV6)
Construct: Human Alk-Smase has now been purified from small intestinal content
Sequence (Q6UWV6 22-458): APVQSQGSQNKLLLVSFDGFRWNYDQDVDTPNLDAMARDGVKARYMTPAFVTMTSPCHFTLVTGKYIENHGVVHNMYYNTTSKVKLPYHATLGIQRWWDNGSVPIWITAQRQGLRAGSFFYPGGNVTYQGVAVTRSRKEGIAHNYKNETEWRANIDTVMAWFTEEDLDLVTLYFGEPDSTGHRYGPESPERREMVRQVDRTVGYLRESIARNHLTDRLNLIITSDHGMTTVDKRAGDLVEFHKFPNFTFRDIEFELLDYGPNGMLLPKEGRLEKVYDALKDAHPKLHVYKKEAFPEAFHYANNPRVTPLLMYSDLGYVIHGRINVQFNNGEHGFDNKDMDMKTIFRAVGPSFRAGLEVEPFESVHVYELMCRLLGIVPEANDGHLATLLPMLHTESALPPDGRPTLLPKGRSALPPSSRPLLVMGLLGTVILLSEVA
Experiment: Alk-Smase activity in the presence of metal ions, detergents, bile salts, glutathione
Details: read-out: concentration giving 50% inhibition of Alk-Smase activity
QUANTITY NAME: IC50 (µM)
Unit µM implied. Number only.

What IC50 value was documented for this compound, [Zn+2] ?
15

Every entry's value here was drawn from patent US20070092503A1.
